- Test system: 885724-159-R-J1-PDC KRAS PDC multicell spheroid viability;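 further: spheroids exposed to agents for 7 days before readout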
- PROTOCOL DESCRIPTION: Anticancer human tumor 885724-159-R-J1-PDC patient-derived pancreatic adenocarcinoma cell line growth inhibition [KRAS2]
- TEST SETTINGS: curve of first compound; second compound 1 µM
pIC50: −log10 of the molar value.
QUANTITY MEASURED: pIC50

COMPOUND	TARGET SYSTEM	QUALIFIER	VALUE MEASURED
CC1OCC2(CCN(c3cnc(Sc4ccnc(N)c4Cl)c(N)n3)CC2)C1N (stereo unspecified) + C=CC(=O)N1CCN(c2nc(OCC3CCCN3C)nc3c2CCN(c2cccc4cccc(C)c24)C3)CC1CC#N	885724-159-R-J1-PDC KRAS PDC multicell spheroid viability	=	5.02
CC(C)NCC(C(=O)N1CCN(c2ncnc3c2C(C)CC3O)CC1)c1ccc(Cl)cc1 (stereo unspecified) + C=CC(=O)N1CCN(c2nc(=O)n(-c3c(C)ccnc3C(C)C)c3nc(-c4c(O)cccc4F)c(F)cc23)C(C)C1	885724-159-R-J1-PDC KRAS PDC multicell spheroid viability	<	5.00
CC(=O)Nc1cccc(-n2c(=O)n(C3CC3)c(=O)c3c(Nc4ccc(I)cc4F)n(C)c(=O)c(C)c32)c1 + C=CC(=O)N1CCN(c2nc(OCC3CCCN3C)nc3c2CCN(c2cccc4cccc(C)c24)C3)CC1CC#N	885724-159-R-J1-PDC KRAS PDC multicell spheroid viability	=	9.20
O=C(c1cc(Cc2n[nH]c(=O)c3ccccc23)ccc1F)N1CCN(C(=O)C2CC2)CC1 + CC1OCC2(CCN(c3cnc(Sc4ccnc(N)c4Cl)c(N)n3)CC2)C1N	885724-159-R-J1-PDC KRAS PDC multicell spheroid viability	<	5.00
CC(=O)OC12COC1CC(O)C1(C)C(=O)C(O)C3=C(C)C(OC(=O)C(O)C(NC(=O)OC(C)(C)C)c4ccccc4)CC(O)(C(OC(=O)c4ccccc4)C21)C3(C)C (stereo unspecified) + CNCc1ccccc1-c1csc(C(C)Nc2nc(C)nc3cc(OC)c(OC)cc23)c1	885724-159-R-J1-PDC KRAS PDC multicell spheroid viability	<	5.50
COC(=O)c1ccc2c(C(=Nc3ccc(N(C)C(=O)CN4CCN(C)CC4)cc3)c3ccccc3)c(O)[nH]c2c1 + C=CC(=O)N1CCN(c2nc(=O)n(-c3c(C)ccnc3C(C)C)c3nc(-c4c(O)cccc4F)c(F)cc23)C(C)C1	885724-159-R-J1-PDC KRAS PDC multicell spheroid viability	=	5.68

// provenance: PubChem BioAssay AID1963861
